molecular target: ORL1 receptor (Homo sapiens, UniProt P41146); construct: expressed in transfected cells; host or cells: CHO (recombinant CHO-ORL1 cells), membranes; test: ORL1 receptor binding assay with 3H-nociceptin/orphanin FQ (WGA-SPA beads); settings: c=1 μM test substance; 0.5 nM 3H-nociceptin/orphanin FQ; membranes of recombinant CHO-ORL1 cells
Sequence (P41146 whole entry): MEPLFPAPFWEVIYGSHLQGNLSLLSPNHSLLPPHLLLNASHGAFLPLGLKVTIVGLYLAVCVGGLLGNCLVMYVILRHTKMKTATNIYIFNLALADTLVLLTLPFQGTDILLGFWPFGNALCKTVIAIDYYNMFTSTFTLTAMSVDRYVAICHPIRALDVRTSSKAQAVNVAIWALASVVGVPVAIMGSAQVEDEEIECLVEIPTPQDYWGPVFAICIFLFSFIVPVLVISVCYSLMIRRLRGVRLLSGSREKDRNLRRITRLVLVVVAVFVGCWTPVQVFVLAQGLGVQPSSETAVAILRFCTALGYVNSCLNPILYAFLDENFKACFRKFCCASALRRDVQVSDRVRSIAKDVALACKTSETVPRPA
Recorded inhibition at 1 µM by entry
Give just the numeric value; % need not be written.

Known inhibition at 1 µM results, listed for orientation:
CN(CCCN1CCC(c2ccccc2)(N(C)C)CC1)C(=O)C1CCCc2c1[nH]c1ccc(Cl)cc21 (stereo not shown) = 79
CN(CCCN1CCC(c2cccs2)(N(C)C)CC1)C(=O)c1ccc2cc[nH]c2c1 = 38

Exercise: Reported inhibition at 1 µM for CN(C)C1(c2ccccc2)CCN(C(=O)CCNCc2c[nH]c3ccc(Br)cc23)CC1 : what is it?
Key: 63

Exercise: Recorded inhibition at 1 µM of CN(C)C1(c2ccccc2)CCN(C(=O)CCNC(=O)c2ccc3ccn(C)c3c2)CC1 , please.
Key: 71

====

molecular target: human μ-opiate receptor (Homo sapiens); construct: purchased NEN, Zaventem, Belgium RB-HOM; host or cells: CHO-K1 cells (membrane preparation); experiment: μ-opiate receptor binding assay with [3H] naloxone (WGA-SPA beads); conditions: 1 μmol/l test substance; 1 nmol/l [3H] naloxone; CHO-K1 cell membranes expressing human μ-opiate receptor
measurement.kind: inhibition at 1 µM (%)
// units = %; emit number, no label

Exercise: Query (compound): CC(C)C(CC(=O)N(C)CCCN1CCC(c2ccccc2)(N(C)C)CC1)c1c[nH]c2ccccc12 (stereo not drawn) ; field requested: inhibition at 1 µM
Key: 88

Exercise: Quick one: inhibition at 1 µM for CN(C)C1(c2ccccc2)CCN(C(=O)C2CN(Cc3ccc4cc[nH]c4c3)c3ccccc32)CC1 (stereo not drawn) ?
Key: 80

Exercise: Recorded inhibition at 1 µM of CN(CCN1CCC(c2ccccc2)(N(C)C)CC1)C(=O)c1cccc2c1ccn2C , please.
Key: 88

====

target: ORL1 receptor (Homo sapiens, UniProt P41146); construct: expressed in transfected cells; host or cells: CHO (recombinant CHO-ORL1 cells), membranes; assay: ORL1 receptor binding assay with 3H-nociceptin/orphanin FQ (WGA-SPA beads); settings: c=1 μM test substance; 0.5 nM 3H-nociceptin/orphanin FQ; membranes of recombinant CHO-ORL1 cells
inhibition at 1 µM reference
Only the number, expressed in %, is required.

Examples with their reported inhibition at 1 µM follow.
CN(C)C1(c2ccccc2)CCN(C(=O)C2CCCN(C(=O)c3cccc4c3ccn4C)C2)CC1 (stereo not shown) = 36
CC(C)C(C(=O)N1CCC(c2ccccc2)(N(C)C)CC1)N(C)C(=O)Cc1c[nH]c2cc(F)ccc12 (stereo not shown) = 97
CN(CCN1CCC(c2ccccc2)(N2CCCC2)CC1)C(=O)Cc1c[nH]c2cc(F)ccc12 = 31

The record that follows has no inhibition at 1 µM shown yet.
Exercise: Which inhibition at 1 µM is reported for this molecule? CN(C)C1(c2cccs2)CCN(C(=O)CC(NC(=O)c2ccc3cc[nH]c3c2)c2ccccc2)CC1 (stereo not shown)
Key: 79

====

Each record here notes measured inhibition at 1 µM.
biological target: human μ-opiate receptor (Homo sapiens, UniProt P35372); construct: purchased NEN, Zaventem, Belgium RB-HOM; host or cells: CHO-K1 cells (membrane preparation); assay: μ-opiate receptor binding assay with [3H] naloxone (WGA-SPA beads); settings: 1 μmol/l test substance; 1 nmol/l [3H] naloxone; CHO-K1 cell membranes expressing human μ-opiate receptor
Sequence (P35372 whole entry): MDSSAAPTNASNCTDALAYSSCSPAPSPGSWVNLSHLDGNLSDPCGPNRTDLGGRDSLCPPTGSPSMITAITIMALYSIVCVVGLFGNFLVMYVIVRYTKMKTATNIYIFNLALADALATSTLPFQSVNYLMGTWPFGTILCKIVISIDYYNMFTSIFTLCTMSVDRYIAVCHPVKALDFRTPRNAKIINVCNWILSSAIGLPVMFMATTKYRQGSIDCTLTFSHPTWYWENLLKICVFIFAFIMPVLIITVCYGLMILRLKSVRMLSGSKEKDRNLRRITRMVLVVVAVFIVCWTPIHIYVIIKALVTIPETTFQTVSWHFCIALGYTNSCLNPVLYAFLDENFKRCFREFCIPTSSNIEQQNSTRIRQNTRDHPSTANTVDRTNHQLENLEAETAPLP
The reply should be a number in %, with the unit left off.

CN(CCN1CCC(c2ccccc2)(N2CCCC2)CC1)Cc1c[nH]c2ccccc12 = 82
CN(C)C1(c2ccccc2)CCN(C(=O)CCNC(=O)CCc2cn(C)c3ccccc23)CC1 = 79

Now consider a different compound.
Exercise: Entry CCCCC1(N(C)C)CCN(CCN(C)Cc2ccc3[nH]ccc3c2)CC1 : reported inhibition at 1 µM = ?
Key: 82

====

molecular target: ORL1 receptor (Homo sapiens, UniProt P41146); construct: expressed in transfected cells; host or cells: CHO (recombinant CHO-ORL1 cells), membranes; assay: ORL1 receptor binding assay with 3H-nociceptin/orphanin FQ (WGA-SPA beads); details: c=1 μM test substance; 0.5 nM 3H-nociceptin/orphanin FQ; membranes of recombinant CHO-ORL1 cells
Lab note: compare % Inhibition (ORL1) at 1 μM against 60%. Equal or greater, write true. Smaller, write false.

Previously resolved entries follow.
CN(CCN1CCC(c2ccccc2)(N(C)C)CC1)C(=O)c1ccc2cc[nH]c2c1 = true
COc1ccc2[nH]cc(CN(C)CCN3CCC(c4ccccc4)(N(C)C)CC3)c2c1 [Example 75] = true
CN(CCN1CCC(c2ccccc2)(N(C)C)CC1)C(=O)C1CCCc2c1[nH]c1ccc(Cl)cc21 (stereo not shown) [Example 127] = false

Exercise: Does the reported % Inhibition (ORL1) at 1 μM for CCCCC1(N(C)C)CCN(CCN(C)Cc2ccc3cc[nH]c3c2)CC1 fall at or above the 60% mark?
Key: false

Exercise: Could you verify whether the entry CN(CCN1CCC(c2ccccc2)(N(C)C)CC1)Cc1cccc2[nH]ccc12 [Example 195] shows % Inhibition (ORL1) at 1 μM of no less than 60%?
Key: false

Exercise: Is it the case that CC(C)C(CC(=O)N(C)CCN1CCC(c2ccccc2)(N(C)C)CC1)c1c[nH]c2ccccc12 (stereo not shown) has % Inhibition (ORL1) at 1 μM reaching or exceeding 60%?
Key: true

Exercise: Is % Inhibition (ORL1) at 1 μM at least 60%? Consider CC(C)C(CC(=O)NCCN1CCC(c2cccs2)(N(C)C)CC1)c1c[nH]c2ccccc12 (stereo not shown)
Key: true

Exercise: Could you please find out whether COc1ccc2[nH]cc(CN(C)CCN3CCC(c4ccccc4)(N(C)C)CC3)c2c1 [Example 191] has % Inhibition (ORL1) at 1 μM that meets 60% or exceeds it?
Key: true

Exercise: Does CCCCC1(N(C)C)CCN(CCN(C)Cc2cccc3cc[nH]c23)CC1 have a reported % Inhibition (ORL1) at 1 μM of at least 60%?
Key: false
